pIC50 values, listed per item
biological target: UniProt:Q04609; experiment: Inhibition of human recombinant GCP2 using N-acetyl-L-aspartyl-[3H]-L-glutamate as substrate by microplate assay
Sequence (Q04609 whole entry): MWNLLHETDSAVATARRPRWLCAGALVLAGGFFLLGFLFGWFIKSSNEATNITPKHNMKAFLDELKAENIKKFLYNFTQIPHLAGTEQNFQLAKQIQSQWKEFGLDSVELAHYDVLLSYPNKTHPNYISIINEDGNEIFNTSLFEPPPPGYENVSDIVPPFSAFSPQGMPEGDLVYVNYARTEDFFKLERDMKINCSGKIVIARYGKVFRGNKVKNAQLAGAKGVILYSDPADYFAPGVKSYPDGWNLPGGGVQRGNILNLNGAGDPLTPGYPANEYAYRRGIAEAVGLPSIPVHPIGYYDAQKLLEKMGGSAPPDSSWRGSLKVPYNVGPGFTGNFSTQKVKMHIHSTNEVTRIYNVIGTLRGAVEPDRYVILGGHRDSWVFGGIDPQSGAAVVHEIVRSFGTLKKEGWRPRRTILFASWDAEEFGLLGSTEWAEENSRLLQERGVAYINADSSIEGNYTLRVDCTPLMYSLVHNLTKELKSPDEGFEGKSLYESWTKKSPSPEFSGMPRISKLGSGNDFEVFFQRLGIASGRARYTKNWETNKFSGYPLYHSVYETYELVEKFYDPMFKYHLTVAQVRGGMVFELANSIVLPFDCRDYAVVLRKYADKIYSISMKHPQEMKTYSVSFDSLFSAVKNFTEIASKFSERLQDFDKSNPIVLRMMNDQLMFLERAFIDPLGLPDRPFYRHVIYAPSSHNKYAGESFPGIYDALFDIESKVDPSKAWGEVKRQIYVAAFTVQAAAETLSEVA
Convention used: pIC50 is expressed as -log10 of the molar concentration.

Solved entries:
1. O=C(O)c1cc(CS)ccc1-c1ccccc1 : 5.24
2. O=C(O)c1ccc(-c2cccc(CCS)c2C(=O)O)cc1 : 8.15
3. O=C(O)c1c(CCS)cccc1OCc1ccccc1 : 6.70

Sample O=C(O)c1c(CCS)cccc1-c1ccccc1 ; pIC50 observed: 5.85

The compound identified as O=C(O)c1ccccc1-c1cccc(CCS)c1C(=O)O registered its pIC50 at 6.64

Looking up O=C(O)c1ccc(COc2ccc(CS)cc2C(=O)O)cc1 , I see its pIC50 listed as 7.80

Query O=C(O)c1ccccc1COc1ccc(CS)cc1C(=O)O yields pIC50 of 7.39

For O=C(O)c1cccc(COc2cccc(CCS)c2C(=O)O)c1 the compound record lists pIC50 as 7.16

Recorded result, O=C(O)c1ccccc1-c1ccc(CS)cc1C(=O)O , pIC50: 6.47

The compound O=C(O)c1ccccc1COc1cccc(CCS)c1C(=O)O showed pIC50 equal to 6.85

Kindly note the recorded pIC50 for O=C(O)c1ccc(COc2cccc(CCS)c2C(=O)O)cc1 , which is 6.70

Entry O=C(O)c1cccc(-c2ccc(CS)cc2C(=O)O)c1 , pIC50 reported as 7.42

Sample O=C(O)c1cccc(COc2ccc(CS)cc2C(=O)O)c1 ; pIC50 observed: 8.70

Sure, the documented pIC50 for O=C(O)c1ccccc1CCS is 6.03

Reported pIC50 ( O=C(O)c1ccc(-c2ccc(CS)cc2C(=O)O)cc1 ) = 7.28

O=C(O)c1cccc(CS)c1 yielded pIC50 of 5.89

----------
test: Cmax in fasted rat at 10 mg/kg, po; assay type: ADME, organism-based; parameters: dose 10 mg/kg, route oral; settings: in vivo
REPORTED ENDPOINT: Cmax (ng/mL)
Give the quantity in ng/mL, number only.

Cmax reported for this compound O=C(O)c1cccc(-c2cccc(CCS)c2C(=O)O)c1 : 7100

----------
experiment: Tmax in fasted rat at 10 mg/kg, po; format: ADME, organism-based; design: dose 10 mg/kg, route oral; conditions: in vivo
REPORTED ENDPOINT: Tmax
Form entry: enter the amount, then its unit.

Field Tmax (entry O=C(O)c1cccc(-c2cccc(CCS)c2C(=O)O)c1 ) reads 1.1 h

----------
assay: Terminal half life in fasted rat at 10 mg/kg, po; assay type: ADME, organism-based; set-up: dose 10 mg/kg, route oral; conditions: in vivo, read-out: beta t1/2 (converted)
REPORTED ENDPOINT: half-life (h)
Quick reminder: number only, in h, skip the unit.

Memo: O=C(O)c1cccc(-c2cccc(CCS)c2C(=O)O)c1 , reported half-life: 3.2

----------
experiment: Apparent oral clearance in fasted rat at 10 mg/kg; assay type: ADME, organism-based; parameters: dose 10 mg/kg, route oral; settings: in vivo
REPORTED ENDPOINT: CL/F (mL/min/kg)
Lab book: enter the figure in mL/min/kg, no units written.

The recorded CL/F for O=C(O)c1cccc(-c2cccc(CCS)c2C(=O)O)c1 is 5.3
